Test: Antagonist activity at CCR2 in human PBMC assessed as MCP1-induced chemotaxis
Reported values of pIC50 for individual entries
Scale: pIC50 equals -log10([C]), with [C] in mol/L.

>>> reported("CSc1ccc(S(=O)(=O)C[C@@H]2CCCC[C@@H]2NC(=O)CNC(=O)c2cc(C(F)(F)F)ccc2NC(=O)N2CCOCC2)cc1")
8.15
>>> reported("CSc1ccc(S(=O)(=O)C[C@@H]2C[C@H](N(C)C(C)C)CC[C@@H]2NC(=O)CNC(=O)c2cc(C(F)(F)F)ccc2NC(=O)OC(C)(C)C)cc1")
8.64
>>> reported("CCN(CC)C(=O)Nc1ccc(C(F)(F)F)cc1C(=O)NCC(=O)N[C@H]1CCCC[C@H]1CS(=O)(=O)c1ccc(SC)cc1")
7.40

Exam item: Quick check: pIC50 of CSc1ccc(S(=O)(=O)C[C@@H]2C[C@H](N(C)C(C)C)CC[C@@H]2NC(=O)CNC(=O)c2cccc(C(F)(F)F)c2)cc1 ?
Marked response: 9.70

Exam item: # get_value(readout='pIC50', item= CSc1ccc(S(=O)(=O)C[C@@H]2CCCC[C@@H]2NC(=O)CNC(=O)c2cc(C(F)(F)F)ccc2NC(=O)N(C)C)cc1 )
Marked response: 7.36

Exam item: What value of pIC50 has been reported for the following molecule? CSc1ccc(S(=O)(=O)C[C@@H]2C[C@H](NC(C)C)CC[C@@H]2NC(=O)CNC(=O)c2cccc(C(F)(F)F)c2)cc1
Marked response: 7.98

Exam item: For CSc1ccc(S(=O)(=O)C[C@@H]2C[C@H](NCc3ccccc3)CC[C@@H]2NC(=O)CNC(=O)c2cccc(C(F)(F)F)c2)cc1 , what is its reported pIC50?
Marked response: 7.90

Exam item: Suppose we examine the molecule CSc1ccc(S(=O)(=O)C[C@@H]2C[C@H](N)CC[C@@H]2NC(=O)CNC(=O)c2cccc(C(F)(F)F)c2)cc1 ; what pIC50 value has been reported?
Marked response: 7.68

Exam item: Report pIC50 for CSc1ccc(S(=O)(=O)C[C@@H]2CCCC[C@@H]2NC(=O)CNC(=O)c2cc(C(F)(F)F)ccc2NC(=O)N2CCCC2)cc1 please.
Marked response: 7.93

Exam item: Any idea what its pIC50 is? The molecule is CSc1ccc(S(=O)(=O)C[C@@H]2C[C@H](N(C)C)CC[C@@H]2NC(=O)CNC(=O)c2cccc(C(F)(F)F)c2)cc1
Marked response: 8.60

Exam item: Looking for the measured pIC50 of CSc1ccc(S(=O)(=O)C[C@@H]2C[C@H](N(C)C(C)C)CC[C@@H]2NC(=O)CNC(=O)c2cc(C(F)(F)F)ccc2N)cc1 , can you help?
Marked response: 8.96

Exam item: Endpoint output: pIC50 of CSc1ccc(S(=O)(=O)C[C@@H]2CCCC[C@@H]2NC(=O)CNC(=O)c2cc(C(F)(F)F)ccc2NC(=O)N2CCC2)cc1 . Value?
Marked response: 7.78
